- Test system: 276233-004-R-J1-PDC complex spheroid viability;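 note: spheroids exposed to drugs for seven days; 100% = DMSO vehicle control viability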
- experimentalDetails: Anticancer human tumor 276233-004-R-J1-PDC patient-derived colon adenocarcinoma cell line growth inhibition [GQUAD]
- studyConditions: second compound 3.16 µM; first compound 0.0316 µM; hits give low values
Parameter viability, T/C: see the listing below.

>  <compound>
COc1ncnc(C2CC2)c1-c1ncc2cnn(Cc3ccc(-c4nc(C(F)(F)F)cn4C(C)C)cc3)c2n1 + Cc1cnc(CNC(=O)c2c(=O)c3ccc(N4CCCN(C)CC4)nc3n3c2sc2ccccc23)cn1

>  <measuredOn>
276233-004-R-J1-PDC complex spheroid viability;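 note: spheroids exposed to drugs for seven days; 100% = DMSO vehicle control viability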

>  <readingUnit>
%

>  <viability, T/C>
76.1

$$$$
>  <compound>
CCc1c2c(nc3ccc(O)cc13)-c1cc3c(c(=O)n1C2)COC(=O)[C@]3(O)CC + Cc1[nH]c2ccc(F)cc2c1-c1nc2c3cccnc3c3ncccc3c2[nH]1

>  <measuredOn>
276233-004-R-J1-PDC complex spheroid viability;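 note: spheroids exposed to drugs for seven days; 100% = DMSO vehicle control viability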

>  <readingUnit>
%

>  <viability, T/C>
62.3

$$$$
>  <compound>
Cn1ncnc1[C@H]1c2n[nH]c(=O)c3cc(F)cc(c23)N[C@@H]1c1ccc(F)cc1 + Cc1cnc(CNC(=O)c2c(=O)c3ccc(N4CCCN(C)CC4)nc3n3c2sc2ccccc23)cn1

>  <measuredOn>
276233-004-R-J1-PDC complex spheroid viability;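 note: spheroids exposed to drugs for seven days; 100% = DMSO vehicle control viability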

>  <readingUnit>
%

>  <viability, T/C>
67.5

$$$$
>  <compound>
CC[C@@]1(O)C(=O)OCc2c1cc1n(c2=O)Cc2cc3c(CN(C)C)c(O)ccc3nc2-1 + Cc1cnc(CNC(=O)c2c(=O)c3ccc(N4CCCN(C)CC4)nc3n3c2sc2ccccc23)cn1

>  <measuredOn>
276233-004-R-J1-PDC complex spheroid viability;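 note: spheroids exposed to drugs for seven days; 100% = DMSO vehicle control viability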

>  <readingUnit>
%

>  <viability, T/C>
87.2

$$$$
>  <compound>
Cc1[nH]c2ccccc2c1CCNCc1ccc(/C=C/C(=O)NO)cc1 + Cc1[nH]c2ccc(F)cc2c1-c1nc2c3cccnc3c3ncccc3c2[nH]1

>  <measuredOn>
276233-004-R-J1-PDC complex spheroid viability;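 note: spheroids exposed to drugs for seven days; 100% = DMSO vehicle control viability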

>  <readingUnit>
%

>  <viability, T/C>
13.6

$$$$
